These measurements were taken from PubChem BioAssay (NCI).

Each record here notes measured TGI.
- Test system: U251 CNS
- Test name: NCI tumour cell line growth inhibition, 48 h

In the examples that follow, each entry is paired with its recorded TGI.
>  <Molecule>
COc1ccc(N[C@H](CS(=O)c2ccc(C)cc2)C(F)(F)C(F)(F)F)cc1 (stereo partly specified)

>  <TGI>
> 100 µM

$$$$
>  <Molecule>
CC[O-].Cc1ccc2cccc([O-])c2n1.Cc1ccc2cccc([O-])c2n1.Cc1ccc2cccc([O-])c2n1.[Ti+4]

>  <TGI>
50.4 µM

$$$$

In: Any idea what its TGI is? The molecule is Cc1nc2ccccc2c(=O)n1NC(=O)c1ccccc1O
Out: > 100 µM

In: What do you get for Cc1c[nH]c(C(=O)O)c1-c1ccc2c(-c3ccccc3)nc3ccccc3n12 ?
Out: > 100 µM

In: What do you get for CCOC(=O)c1c(C)n2c(=O)cc(C)c3c(OC(C)=O)c(OC(C)=O)cc1c32 ?
Out: > 57.7 µM

In: What do you get for N#CC1CCN2N=C(c3ccccc3)SC12c1ccccc1 (stereo unspecified) ?
Out: > 100 µM
